# ASSAYED_TARGET: T1, cMet-Fc fusion protein (extracellular domain of the cMet receptor expressed as an Fc-fusion protein) (human, UniProt P08581 25-932)
# T1 construct: extracellular domain; also called soluble cMet-Fc-fusion protein; soluble cMet receptor; not shown: Fc part
# T1 sequence (P08581 25-932): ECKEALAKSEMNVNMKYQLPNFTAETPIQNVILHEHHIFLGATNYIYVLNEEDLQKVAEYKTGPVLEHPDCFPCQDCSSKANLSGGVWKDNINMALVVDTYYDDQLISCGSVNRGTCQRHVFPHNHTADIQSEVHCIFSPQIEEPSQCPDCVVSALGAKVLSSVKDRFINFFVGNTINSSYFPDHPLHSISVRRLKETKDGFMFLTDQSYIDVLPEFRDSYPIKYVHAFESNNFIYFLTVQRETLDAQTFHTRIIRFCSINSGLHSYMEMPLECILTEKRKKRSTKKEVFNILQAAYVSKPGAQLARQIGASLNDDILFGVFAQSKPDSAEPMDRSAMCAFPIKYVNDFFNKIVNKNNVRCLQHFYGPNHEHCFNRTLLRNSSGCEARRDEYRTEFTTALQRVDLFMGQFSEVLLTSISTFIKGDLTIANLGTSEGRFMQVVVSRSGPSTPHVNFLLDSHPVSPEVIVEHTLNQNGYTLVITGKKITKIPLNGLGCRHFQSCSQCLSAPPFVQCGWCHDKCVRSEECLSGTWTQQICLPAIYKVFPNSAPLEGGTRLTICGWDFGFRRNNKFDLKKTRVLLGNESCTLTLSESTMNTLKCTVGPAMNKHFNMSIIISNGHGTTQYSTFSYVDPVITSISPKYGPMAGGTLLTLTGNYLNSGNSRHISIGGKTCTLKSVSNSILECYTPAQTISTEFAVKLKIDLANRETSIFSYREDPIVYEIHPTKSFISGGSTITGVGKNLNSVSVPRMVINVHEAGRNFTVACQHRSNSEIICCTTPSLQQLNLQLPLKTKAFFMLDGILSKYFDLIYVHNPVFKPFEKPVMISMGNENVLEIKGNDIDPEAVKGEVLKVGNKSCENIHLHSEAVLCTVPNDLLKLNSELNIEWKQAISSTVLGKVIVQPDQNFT
# METHOD_NOTES: phage ELISA on cMet-Fc, competitor HGF 500 ng/mL
ASSAY_ENDPOINT: % of binding in the absence of HGF (%)
Give bare numbers, in %.

Below: 2 binders and their reported % of binding in the absence of HGF.
# BINDER, MEASURED
records = [
    ("AQWNWDMGFMWTTDSAQVQPSM [96-D06 peptide-displaying phage (SEQ ID NO: 489)]", 151),
    ("GSLIFCPYGECMMYAP [470-E11 peptide-displaying phage (SEQ ID NO: 005)]", 127),
]

Quick one: give me % of binding in the absence of HGF for each item below, same order please.
1. AGSWECTGPPSFHCQWYGT [551-G12 peptide-displaying phage (SEQ ID NO: 070)]
2. AQNAVVPPPMLWSIYWDYGREG [94-H04 peptide-displaying phage (SEQ ID NO: 457)]

Resp:
1: 46; 2: 101
